Data provenance: patent US20060240405A1

# System: wild type HBV genomes population
# Experimental protocol: Phenotypic drug susceptibility assay: Huh7 cells transfected with type-I vector clones, Southern blot of intracellular replicative HBV DNA intermediates
# Experimental conditions: Hepatitis B virus, Huh-7, read-out: IC50 (intracellular replicative HBV DNA intermediates)
Property label: IC50

Input Nc1ccn([C@@H]2CS[C@H](CO)O2)c(=O)n1 [lamivudine, β-L-(−)-2′,3′-dideoxy-3′-thiacytidine] . Output IC50: < 100 nM
